Measured values drawn from PubChem BioAssay (NCI) for this set.

Known TGI of a selection of compounds
System: UACC-257 melanoma
Test: NCI tumour cell line growth inhibition, 48 h
Reported endpoint: TGI

> print(dat)
                                    compound        test.target  test.result
 1  Cc1c(C)c2c(c(N)c1C#N)C(=O)N(Cc1ccc(S(N)(=O)=O)cc1)C2=O  UACC-257 melanoma     > 100 µM
 2  O=[N+]([O-])c1ccc(-c2ccc(C3=Nn4c(CNc5ccccc5Cl)nnc4SC3)o2)cc1  UACC-257 melanoma     > 100 µM
 3  C(=Nc1nc(SCc2ccccc2)nc2[nH]ncc12)c1cccs1  UACC-257 melanoma     > 100 µM
 4  Cc1ccc(OCC2OC(n3cnc4c(Cl)nc(Nc5cc(Cl)cc(Cl)c5)nc43)CC2Oc2ccc(C)cc2)cc1 (stereo unspecified)  UACC-257 melanoma     > 100 µM
 5  O=C(Nc1ccc(OC(F)(F)Cl)cc1)c1cnc(N2CC[C@@H](O)C2)c(-c2ccn[nH]2)c1  UACC-257 melanoma      22.6 µM
 6  CCN(CC)CCNc1ccc([N+](=O)[O-])c2nc3ccc(OC)cc3c(NCCN(CC)CC)c12  UACC-257 melanoma      > 10 µM
 7  COC(=O)c1cc2c(cc1Cl)Sc1nnc(Nc3ccccc3)n1S2(=O)=O  UACC-257 melanoma      21.7 µM
 8  CSc1nc2nc(-c3ccccc3)c(C)c-2c2n1C(C)C(=O)N2 (stereo unspecified)  UACC-257 melanoma     > 100 µM
 9         C=CCC(CCC(C)=O)(C(=O)OCC)C(=O)OCC  UACC-257 melanoma     > 100 µM
10  NC1=NC(Cn2nc(-c3ccccc3)c3ccccc3c2=O)=NNC(=O)N1  UACC-257 melanoma     > 100 µM
11  O=C(CSCC(=O)N/N=C/c1cccc(O)c1)N/N=C/c1cccc(O)c1  UACC-257 melanoma     > 100 µM
12  COc1ccc(-c2oc3cc(-c4cc5oc(-c6ccc(OC)cc6)c(-c6ccc(OC)cc6)c5cc4OC)c(OC)cc3c2-c2ccc(OC)cc2)cc1  UACC-257 melanoma     > 100 µM
13  O=C(Nn1c(-c2ccccc2)nc2ccccc2c1=O)c1ccc(Cl)cc1  UACC-257 melanoma     > 100 µM
14  N#CC1CC(c2ccccc2)Nc2cc(Cl)ccc2N1 (stereo unspecified)  UACC-257 melanoma     > 100 µM
15  Cc1cc(Br)c(NC(=O)c2c(-c3c(Cl)cccc3Cl)noc2C)c(Br)c1  UACC-257 melanoma     > 100 µM
16  CCOC(=O)c1c(NC(=O)c2ccccc2)c(C#N)c2n1CCCCC2  UACC-257 melanoma     > 100 µM

----------
Tested on: NCI-H23 lung
Experiment: NCI tumour cell line growth inhibition, 48 h

Molecule	GI50
COc1cc(C(=O)/C=C/c2cccc(Nc3ccnc4cc(Cl)ccc34)c2)cc(OC)c1OC	1.67 µM
COC12C(COC(=O)NCCO)C3=C(C(=O)C(C)=C(N)C3=O)N1CC1NC12 (stereo unspecified)	10.3 µM
CC(=O)NC1C(O[C@H]2C[C@H]3[C@@H]4CC=C5C[C@@H](O)CC[C@]5(C)[C@H]4CC[C@]3(C)[C@H]2[C@H](C)C(=O)CCC(C)C)OCC(O)C1O (stereo partly specified)	4.59 µM
COc1ccccc1CNCCN1C(=O)c2ccc3c4c(ccc(c24)C1=O)C(=O)N(CCNCc1ccccc1OC)C3=O	0.19 µM
CCSCC1CC(O)(c2ccccc2)C(c2ccccc2)C(c2ccc(F)cc2)O1 (stereo unspecified)	2.01 µM
O=C(O)CN(CCN(CC(=O)O)CC(=O)O)CC(=O)O.[Mn+2]	> 100 µM
